B1: glmS ribozyme (parent)
chain: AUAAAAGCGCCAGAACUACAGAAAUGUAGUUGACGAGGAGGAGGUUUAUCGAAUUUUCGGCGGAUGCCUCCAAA

variants of: B1; experiment: self-cleavage kobs at 640 uM GlcN6P; higher = faster cleavage; RNA array; conditions: with glucosamine-6-phosphate
Fewer inactive variants are shown than the library holds.
Category scheme (self-cleavage kobs at 640 uM GlcN6P): lower band: < 0.0001 s⁻¹; central band: ≥ 0.0001 s⁻¹ and < 0.0005 s⁻¹; upper band: ≥ 0.0005 s⁻¹

These solved cases illustrate the format of a correct answer.
seq.text | class.label
AUAAAAGCGCCAGAAUUACAGAAAUGUAGUUGACGAGGAGGAGGUUUAUCGAAUCUUCGGCGGAUGCCUUCAAA [C16U U55C C70U] | central band
AUAAAAGCGCCAGAACUACAGAAAUGUAGUUGACGAGGAGGAGGUUUAUCGAAUUUUCGGGGGAUGCCCCCAAA [C61G U69C] | lower band
AUAAAAGCGCCAGAACUACAGAAAUGUAGUCGACGAGGAGGAGGUUUAUCGAAUUUUCGGCGGAUGCCCCCAAA [U31C U69C] | central band
AUAAAAGCGCCAGAACUACAGAAAUGUAGUUGACGAGGAGGACGUUUAUCGAAUUUUCCGCGGAUGCCUCCAAA [G43C G59C] | lower band
AUAAAUGCGCCAGAACUACAGAAAUGUAGUUGACGAGGAGGAGGUUUAUAGAAUUUUCGACGGAUGCCUACAAA [A6U C50A G60A C70A] | central band

# evaluate next
Exercise: Class for AUAAAAGGGCCAGAAGUACAGAAAUGUAGUUGACGAGGAGAAGGUUAAUCGAAUUUUCGGCGGAUGCCUCCAAA [C8G C16G G41A U47A] ?
Key: lower band

Data origin: the supplement of paper PMC7125110
